Test system: LOX IMVI melanoma
Experiment: NCI tumour cell line growth inhibition, 48 h
measured_quantity: TGI

I am curious: what TGI value has been reported for `NCCOCCOCCNc1nc(Cc2ccccc2)nc(NCCCN2CCCC2=O)n1` ?
> 100 µM

I am curious: what TGI value has been reported for `O=C(c1cccc2ccccc12)C1(Br)S(=O)(=O)OCCOS1(=O)=O` ?
> 100 µM

I am curious: what TGI value has been reported for `C[n+]1c2ccccc2c(C(=O)Nc2ccc(S(=O)(=O)Nc3ccnn3-c3ccccc3)cc2)c2ccccc21` ?
> 100 µM

I am curious: what TGI value has been reported for `NC(=O)NNc1nc2ccccc2c(=O)n1NC(=O)C(=O)Nc1ccc(Cl)cc1Cl` ?
> 100 µM

I am curious: what TGI value has been reported for `COc1cc(/C=C/c2cc(O)c3cc(C(C)=O)c(=O)oc3c2)cc2c1O[C@]1(C)CC[C@@H](O)C(C)(C)[C@H]1C2` ?
> 42.2 µM
